Each recorded value in this set is attributed to PubChem BioAssay.

Assay: yeast growth modulation, basal conditions, primary screen, YJM789 clinical isolate, OD600, 24 h (AID 1089);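 further: growth of clinical yeast isolate S. cerevisiae YJM 789 seeded 1000 cells per well; test concentration not given here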
Settings: S. cerevisiae YJM789 growth, higher = more signal, called active from +8 up or from −8 down
value type: z-score
Give only the figure.

Solved entries (count: 3):
>  <molecule>
COc1cc2c(cc1O)C(C)N(Cc1cccc(OC(F)(F)F)c1)CC2 (centres undefined)

>  <z-score>
-0.167

$$$$
>  <molecule>
CCCCCCc1nc(CCCc2cc3c(c(CCCCCC)n2)[Si](C(C)C)(C(C)C)OC3)cc2c1[Si](C(C)C)(C(C)C)OC2

>  <z-score>
-0.506

$$$$
>  <molecule>
COc1ccc([Si](C)(C)[C@@H]2[C@@H](CCn3cc([C@H](O)c4ccccc4)nn3)O[C@]3(C(=O)N(Cc4cccc(N5CCOC5=O)c4)c4ccccc43)[C@H]2C)cc1

>  <z-score>
1.56

$$$$

Now take the following molecule into account.
Ask: State the recorded z-score for this entry: CCCCCN1CC=CC23O[C@@H]4/C=C\CCC(C)OC(=O)C4[C@H]2C(=O)N(CCCCCO)[C@@H]3C1=O (some centres undefined)
Reply: -1.46
